Test system: SK-MEL-28 melanoma
test-description: NCI-60 one-dose screen, 48 h
condition-info: 10 µM unless noted
Compounds without any hit were thinned out: in the full panel of roughly 83,000, 20% have a hit. Active and inactive are the calls of the source. The calls were made as follows: active = growth percent below 10; inactive = the rest.
Outcome codes: active, inactive

> print(dat)
                                    compound     class
 1  Cc1c(C(=O)Nc2nc(-c3ccccc3)cs2)nnn1-c1ccccc1Br  inactive
 2     CCOc1ccc(-c2cnnn2-c2nonc2-n2cccc2)cc1  inactive
 3             O=C(Nc1ccccc1)Oc1cccc2cccnc12  inactive
 4  COc1ccc(/C=N/OCC(O)CN2CCC(O)CC2)cc1OC1CCCC1 (stereo not given)  inactive
 5  COc1ccc(Nc2nc(NCCNc3ccnc4cc(Cl)ccc34)nc(N3CCOCC3)n2)cc1    active
 6  N#Cc1ccc(C(F)(F)F)nc1N1CCC(C(=O)Nc2ccc(Cl)cc2)CC1  inactive
 7  CN([N-]C(=O)CC(=O)[N-]N(C)C(=S)c1ccccc1)C(=S)c1ccccc1.[Cu+2]    active
 8             O=C1N/C(=C\c2ccccc2)c2ncccc21  inactive
 9  Cc1nc(NC(=O)COc2cccc(/C=C3\COc4ccccc4C3=O)c2)sc1C    active
10        NC(=O)c1cc(Cl)ccc1NC(=O)COc1ccccc1  inactive
11  COc1ccc(-c2nn(-c3ccc(NC(=O)c4ccc(Cl)c(Cl)c4)cc3)cc2-c2ccncc2)cc1Cl  inactive
12              CCCCc1ccc(NC(=O)C(F)(F)F)cc1  inactive
13  Cc1nn(-c2ccccc2)c2nc3nc4c(c(N)c3c(-c3ccc(Cl)cc3)c12)CCCC4  inactive
14  COc1ccc(/C=C2\Oc3cc(C)c(Cl)cc3C2=O)cc1OC  inactive
15  COc1ccc(-n2c(SCc3cc(OC)c(OC)c(OC)c3)nc3ccc(C)cc3c2=O)c(OC)c1  inactive
